Where these numbers come from: patent US20030148958A1

# system: T1, corticotropin releasing factor 2 receptor; also: reference of the scale not given here
# T1 sequence (Q13324 whole entry, species assumed, looked up): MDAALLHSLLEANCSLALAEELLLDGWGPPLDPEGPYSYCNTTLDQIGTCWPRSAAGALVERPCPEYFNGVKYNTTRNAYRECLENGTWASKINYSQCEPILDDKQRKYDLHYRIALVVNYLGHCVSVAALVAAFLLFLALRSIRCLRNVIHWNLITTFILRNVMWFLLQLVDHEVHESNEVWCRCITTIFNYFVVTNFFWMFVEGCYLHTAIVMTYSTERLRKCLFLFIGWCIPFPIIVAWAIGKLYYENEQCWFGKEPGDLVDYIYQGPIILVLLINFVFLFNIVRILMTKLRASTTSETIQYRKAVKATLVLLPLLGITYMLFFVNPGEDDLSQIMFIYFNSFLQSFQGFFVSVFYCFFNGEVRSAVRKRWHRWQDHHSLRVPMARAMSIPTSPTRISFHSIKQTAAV
# assay.comment: cell-based or functional assay
Ends that are not written are not given here.
CRF2R Emax values for the binders below.

>  <binder>
ZGPPISIDLPEYLLRKMIEIEKQEKEKQQAANNRLLLDTI (C-terminal amide) [SEQ ID NO 48]

>  <display.unit>
%

>  <CRF2R Emax>
14

$$$$
>  <binder>
IVLSLDVPIGLLQILLEQARADAAREQATTNARILARV-NH2 [SEQ ID NO 130]

>  <display.unit>
%

>  <CRF2R Emax>
92

$$$$
>  <binder>
IVLSLDVPGPLLQILLEQTKQEAAREQATTNARILARV-NH2 [SEQ ID NO 5]

>  <display.unit>
%

>  <CRF2R Emax>
12

$$$$
>  <binder>
IVLSLDVPIGLLQILLEQERQEAAREQATTNARILARV-NH2 [SEQ ID NO 118]

>  <display.unit>
%

>  <CRF2R Emax>
100

$$$$
>  <binder>
ZGPPISIDLPYHLLRKMIEIEKQEKEKQQAANNRLLLDTI (C-terminal amide) [SEQ ID NO 208]

>  <display.unit>
%

>  <CRF2R Emax>
88

$$$$
>  <binder>
IVLSLDVPIGLLQILLEQTKADAAREQATTNARILARV-NH2 [SEQ ID NO 108]

>  <display.unit>
%

>  <CRF2R Emax>
97

$$$$
>  <binder>
IVLSLDVPIGLLQILLEQEKQRAAREQATTNARILARV-NH2 [SEQ ID NO 115]

>  <display.unit>
%

>  <CRF2R Emax>
98

$$$$
>  <binder>
ZGPPISIDLPFQLLRKMIEIEKQEKEKQQATNNRLLLDTI (C-terminal amide) [SEQ ID NO 14]

>  <display.unit>
%

>  <CRF2R Emax>
90

$$$$
>  <binder>
SQEPPISLDLPLGLLREVLEMTKADQLAQQAHSNRKLLDIA-NH2 [SEQ ID NO 90]

>  <display.unit>
%

>  <CRF2R Emax>
12.2

$$$$
>  <binder>
ZGPPISIDLPIFLLRKMIEIEKQEKEKQQAANNRLLLDTI (C-terminal amide) [SEQ ID NO 29]

>  <display.unit>
%

>  <CRF2R Emax>
100

$$$$
>  <binder>
DNPSLSIDLPFILLRTLLELARTQSQRERAEQNAIIFASV-NH2 [SEQ ID NO 181]

>  <display.unit>
%

>  <CRF2R Emax>
97.8

$$$$
>  <binder>
ZGPPISIDLPILLLRKMIEIEKQEKEKQQAANNRLLLDTI (C-terminal amide) [SEQ ID NO 35]

>  <display.unit>
%

>  <CRF2R Emax>
88

$$$$
